Reference source for all entries: ChEMBL document CHEMBL1133445

# tested target: Integrin alpha-V/beta-3 (Homo sapiens, UniProt P05106+P06756)
# Sequence (P05106 27-788 limits assumed): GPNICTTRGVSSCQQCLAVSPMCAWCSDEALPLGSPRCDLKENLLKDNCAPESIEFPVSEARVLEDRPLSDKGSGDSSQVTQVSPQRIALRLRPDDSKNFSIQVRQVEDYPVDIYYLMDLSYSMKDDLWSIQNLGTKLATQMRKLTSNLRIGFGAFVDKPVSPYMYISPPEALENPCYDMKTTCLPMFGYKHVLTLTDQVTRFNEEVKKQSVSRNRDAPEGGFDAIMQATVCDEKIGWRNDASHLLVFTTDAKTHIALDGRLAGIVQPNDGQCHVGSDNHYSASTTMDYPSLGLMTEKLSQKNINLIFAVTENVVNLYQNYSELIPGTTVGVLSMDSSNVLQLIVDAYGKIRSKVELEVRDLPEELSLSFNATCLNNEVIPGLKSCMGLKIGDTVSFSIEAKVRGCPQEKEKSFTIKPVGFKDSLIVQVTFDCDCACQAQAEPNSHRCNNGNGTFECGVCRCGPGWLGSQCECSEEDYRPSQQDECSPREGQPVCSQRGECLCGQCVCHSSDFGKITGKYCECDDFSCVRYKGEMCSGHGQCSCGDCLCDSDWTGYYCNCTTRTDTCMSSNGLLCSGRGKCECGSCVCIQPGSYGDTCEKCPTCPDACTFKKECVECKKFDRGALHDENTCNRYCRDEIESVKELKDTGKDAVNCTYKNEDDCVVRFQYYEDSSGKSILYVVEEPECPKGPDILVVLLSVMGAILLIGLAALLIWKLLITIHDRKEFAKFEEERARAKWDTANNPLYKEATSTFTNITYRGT
# Sequence (P06756 31-889 limits assumed): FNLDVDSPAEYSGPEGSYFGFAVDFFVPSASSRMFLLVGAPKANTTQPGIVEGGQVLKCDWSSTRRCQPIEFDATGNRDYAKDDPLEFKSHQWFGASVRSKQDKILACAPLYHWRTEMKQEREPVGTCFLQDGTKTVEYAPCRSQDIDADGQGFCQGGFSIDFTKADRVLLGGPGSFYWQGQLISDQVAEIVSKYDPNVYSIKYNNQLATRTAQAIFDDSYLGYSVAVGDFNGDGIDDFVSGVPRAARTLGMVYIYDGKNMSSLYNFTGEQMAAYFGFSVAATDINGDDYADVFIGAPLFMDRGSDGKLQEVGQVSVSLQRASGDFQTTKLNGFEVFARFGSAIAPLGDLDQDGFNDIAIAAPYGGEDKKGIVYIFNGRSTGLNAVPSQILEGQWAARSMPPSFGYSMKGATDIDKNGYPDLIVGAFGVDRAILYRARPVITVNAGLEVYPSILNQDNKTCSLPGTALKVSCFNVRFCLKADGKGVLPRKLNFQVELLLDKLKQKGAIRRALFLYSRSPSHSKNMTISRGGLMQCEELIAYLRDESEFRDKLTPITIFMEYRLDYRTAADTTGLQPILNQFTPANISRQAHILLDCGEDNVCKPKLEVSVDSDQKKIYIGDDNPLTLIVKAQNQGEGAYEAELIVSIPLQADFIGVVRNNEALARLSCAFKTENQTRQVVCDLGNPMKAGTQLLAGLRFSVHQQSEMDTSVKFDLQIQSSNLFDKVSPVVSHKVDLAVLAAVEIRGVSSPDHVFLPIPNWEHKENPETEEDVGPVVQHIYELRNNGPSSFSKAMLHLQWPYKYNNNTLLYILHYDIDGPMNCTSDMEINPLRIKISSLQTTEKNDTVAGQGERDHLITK
# Sequence (P06756 891-1048 limits assumed): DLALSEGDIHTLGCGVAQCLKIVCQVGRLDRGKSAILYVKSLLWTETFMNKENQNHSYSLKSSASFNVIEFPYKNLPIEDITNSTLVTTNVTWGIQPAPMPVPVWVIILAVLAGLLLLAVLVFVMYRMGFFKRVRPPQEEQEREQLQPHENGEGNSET
# procedure text: Dissociation constant of radiolabeled compound binding to alpha-v-beta-3
property label: pKd
Recall that pKd is obtained by taking minus log10 of the concentration measured in molar.

Incoming: I would be grateful if you could share the reported pKd for Nc1cccc(CCc2ccc(C(=O)NC[C@H](NS(=O)(=O)c3ccc(I)cc3)C(=O)O)cc2)n1 .
Outgoing: 10.22

----------
# tested target: Integrin alpha-V/beta-3 (Homo sapiens, UniProt P05106+P06756)
# procedure text: Displacement of [125I]echistatin from human recombinant alpha-v beta-3 receptor
# Assay type: protein-complex assay
Quick reference: pIC50 of the listed items.
Recall that pIC50 is obtained by taking minus log10 of the concentration measured in molar.

Consider the reported pIC50 for these compounds:
O=C(NC[C@H](NS(=O)(=O)c1ccccc1)C(=O)O)c1ccc(CCc2ccc3c(n2)NCCC3)cc1 :: 9.52
Nc1cccc(CCc2ccc(C(=O)NC[C@H](NS(=O)(=O)c3ccc(I)cc3)C(=O)O)cc2)n1 :: 10.00
N=C(N)NCCOc1ccc(C(=O)NC[C@H](NS(=O)(=O)c2ccccc2)C(=O)O)cc1 :: 8.74
Nc1cccc(CCc2ccc(C(=O)NC[C@H](NS(=O)(=O)c3ccccc3)C(=O)O)cc2)n1 :: 9.40

Proceed to the following item.
Incoming: I would be grateful if you could share the reported pIC50 for O=C(NC[C@H](NS(=O)(=O)c1ccccc1)C(=O)O)c1ccc(OCCNC2=NCCCN2)cc1 .
Outgoing: 9.15

----------
# tested target: Integrin alpha-V/beta-3 (Homo sapiens, UniProt P05106+P06756)
# procedure text: Displacement of [125I]nonpeptide ligand (compound 7) from purified human recombinant alphaV-beta3
# Format: protein-complex assay
Field: label. Allowed values: Y (IC50 < 0.4 nM) or N (IC50 >= 0.4 nM).

# count of solved cases: 5
O=C(NC[C@H](NS(=O)(=O)c1ccccc1)C(=O)O)c1ccc(OCCNC2=NCCCN2)cc1 :: N
O=C(NC[C@H](NS(=O)(=O)c1ccccc1)C(=O)O)c1ccc(OCCC2CCNCC2)cc1 :: N
Nc1cccc(CCc2ccc(C(=O)NC[C@H](NS(=O)(=O)c3ccccc3)C(=O)O)cc2)n1 :: N
Nc1cccc(CCc2ccc(C(=O)NC[C@H](NS(=O)(=O)c3ccc(I)cc3)C(=O)O)cc2)n1 :: Y
N=C(N)NCCOc1ccc(C(=O)NC[C@H](NS(=O)(=O)c2ccccc2)C(=O)O)cc1 :: N

Let us examine a further case.
Incoming: Below 0.4 nM on IC50? Entry O=C(NC[C@H](NS(=O)(=O)c1ccccc1)C(=O)O)c1ccc(CCc2ccc3c(n2)NCCC3)cc1
Outgoing: Y
